Attribution: ChEMBL document CHEMBL3044903

system: Oryza sativa; assay: Phytotoxicity against two-leaf stage Oryza sativa cv. Nipponbare (rice) planted zero cm depth at 5.0 g a.i/a measured after 3 weeks; type: organism-based; settings: in vivo, 504 h
Assignment: determine reported Activity for the given compounds.
The reply should be a number in %, with the unit left off.

Activity for C=C1CN(C(C)(C)c2cc(Cl)cc(Cl)c2)C(=O)C1(C(=O)OC)c1ccccc1 (centres undefined) ?
99

Activity for COC(=O)C1(c2ccccc2)C(=O)N(C(C)(C)c2cc(Cl)nc(Cl)c2)C=C1C (centres undefined) ?
80

Activity for COC(=O)C1(c2ccccc2)C(=O)N(C(C)(C)c2cc(Cl)cc(Cl)c2)C=C1CO (centres undefined) ?
65

Activity for COC(=O)C1(c2ccccc2)C(=O)N(C(C)(C)c2cc(Cl)cc(Cl)c2)C=C1C (centres undefined) ?
80

Activity for CC1=C(c2ccccc2)C(=O)N(C(C)(C)c2cc(Cl)cc(Cl)c2)C1 ?
98

Activity for COC(=O)C1(c2ccccc2)C(=O)N(C(C)(C)c2cccc(Cl)c2)C=C1C (centres undefined) ?
98

Activity for C=C1CN(C(C)(C)c2cc(Cl)cc(Cl)c2)C(=O)C1(C(=O)OC)c1ccccc1F (centres undefined) ?
98

Activity for COCC1=CN(C(C)(C)c2cc(Cl)cc(Cl)c2)C(=O)C1(C(=O)OC)c1ccccc1 (centres undefined) ?
98

Activity for COC(=O)C1(c2ccccc2F)C(=O)N(C(C)(C)c2cc(Cl)cc(Cl)c2)C=C1C (centres undefined) ?
30

----------
test system: Oryza sativa; assay: Phytotoxicity against two-leaf stage Oryza sativa cv. Nipponbare (rice) planted zero cm depth at 1 g a.i/a measured after 3 weeks; type: organism-based; settings: in vivo, other, 504 h
value type: Activity
Please answer in the form of a number followed by its unit of measurement.

Observed Activity on Oryza sativa for COC(=O)C1(c2ccccc2)C(=O)N(C(C)(C)c2cc(Cl)cc(Cl)c2)C=C1CO (stereo unspecified) , please.
0%

Observed Activity on Oryza sativa for COC(=O)C1(c2ccccc2)C(=O)N(C(C)(C)c2cc(Cl)nc(Cl)c2)C=C1C (stereo unspecified) , please.
30%

Observed Activity on Oryza sativa for COC(=O)C1(c2ccccc2)C(=O)N(C(C)(C)c2cc(Cl)cc(Cl)c2)C=C1C (stereo unspecified) , please.
0%

Observed Activity on Oryza sativa for C=C1CN(C(C)(C)c2cc(Cl)cc(Cl)c2)C(=O)C1(C(=O)OC)c1ccccc1 (stereo unspecified) , please.
70%

Observed Activity on Oryza sativa for COC(=O)C1(c2ccccc2)C(=O)N(C(C)(C)c2cccc(Cl)c2)C=C1C (stereo unspecified) , please.
80%

Observed Activity on Oryza sativa for COC(=O)C1(c2ccccc2F)C(=O)N(C(C)(C)c2cc(Cl)cc(Cl)c2)C=C1C (stereo unspecified) , please.
0%

----------
Assignment: determine reported Activity for the given compounds.
test system: Schoenoplectiella juncoides; experiment: Post-emergence herbicide activity against Schoenoplectiella juncoides under greenhouse condition at 1 g a.i/a treated at one-leaf stage measured after 3 weeks; assay type: functional

Activity for CC1=CN(C(C)(C)c2cc(Cl)cc(Cl)c2)C(=O)C1(C(=O)OCc1ccccc1)c1ccccc1 (centres undefined) ?
0%

Activity for COC(=O)C1(c2ccccc2)C(=O)N(C(C)(C)c2cc(Cl)cc(Cl)c2)C=C1CO (centres undefined) ?
87.6%

Activity for CCOC(=O)C1(c2ccccc2)C(=O)N(C(C)(C)c2cc(Cl)cc(Cl)c2)C=C1C (centres undefined) ?
0%

Activity for COCC1=CN(C(C)(C)c2cc(Cl)cc(Cl)c2)C(=O)C1(C(=O)OC)c1ccccc1 (centres undefined) ?
87.6%

Activity for COC(=O)C1(c2ccccc2)C(=O)N(C(C)(C)c2cc(Cl)cc(Cl)c2)C=C1C(F)F (centres undefined) ?
0%

Activity for COC(=O)C1(c2ccccc2)C(=O)N(C(C)(C)c2cccc(Cl)c2)C=C1C (centres undefined) ?
87.6%

Activity for COC(=O)C1(c2ccccc2)C(=O)N(C(C)(C)c2cc(Cl)nc(Cl)c2)C=C1C (centres undefined) ?
87.6%

Activity for COC(=O)C1(c2ccccc2)C(=O)N(C(C)(C)c2cc(Cl)cc(Cl)c2)C=C1COC(C)=O (centres undefined) ?
0.1%

Activity for COC(=O)C1(c2ccccc2)C(=O)N(C(C)(C)c2cc(Cl)cc(Cl)c2)C=C1C=O (centres undefined) ?
50.1%

----------
Assignment: determine reported Activity for the given compounds.
test system: Schoenoplectiella juncoides; assay: Post-emergence herbicide activity against Schoenoplectiella juncoides under greenhouse condition at 1 g a.i/a treated at one-leaf stage measured after 3 weeks; type: functional
Please answer in the form of a number followed by its unit of measurement.

Observed Activity on Schoenoplectiella juncoides for COC(=O)C1(c2ccccc2F)C(=O)N(C(C)(C)c2cc(Cl)cc(Cl)c2)C=C1C (centres undefined) , please.
0.1%

Observed Activity on Schoenoplectiella juncoides for COC(=O)C1(c2ccccc2)C(=O)N(C(C)(C)c2cc(Cl)cc(Cl)c2)C=C1/C=N/O (centres undefined) , please.
0%

Observed Activity on Schoenoplectiella juncoides for CC1=C(c2ccccc2)C(=O)N(C(C)(C)c2cc(Cl)cc(Cl)c2)C1 , please.
75.1%

Observed Activity on Schoenoplectiella juncoides for COC(=O)C1(c2ccccc2)C(=O)N(C(C)(C)c2cccc(Cl)n2)C=C1C (centres undefined) , please.
87.6%

----------
system: Schoenoplectiella juncoides; assay: Post-emergence herbicide activity against Schoenoplectiella juncoides under greenhouse condition at 10 g a.i/a treated at one-leaf stage measured after 3 weeks; type: functional
Assignment: determine reported Activity for the given compounds.
The reply should be a number in %, with the unit left off.

Observed Activity on Schoenoplectiella juncoides for COC(=O)C1(c2ccccc2)C(=O)N(C(C)(C)c2cc(Cl)cc(Cl)c2)C=C1COC(C)=O (stereo not drawn) , please.
87.6

Observed Activity on Schoenoplectiella juncoides for CC1=C(c2ccccc2)C(=O)N(C(C)(C)c2cc(Cl)cc(Cl)c2)C1 , please.
87.6

Observed Activity on Schoenoplectiella juncoides for COC(=O)C1(c2ccccc2)C(=O)N(C(C)(C)c2cc(Cl)cc(Cl)c2)C=C1C=O (stereo not drawn) , please.
87.6

Observed Activity on Schoenoplectiella juncoides for COC(=O)C1(c2ccccc2)C(=O)N(C(C)(C)c2cc(Cl)cc(Cl)c2)C=C1C (stereo not drawn) , please.
87.6

Observed Activity on Schoenoplectiella juncoides for COCC1=CN(C(C)(C)c2cc(Cl)cc(Cl)c2)C(=O)C1(C(=O)OC)c1ccccc1 (stereo not drawn) , please.
87.6

Observed Activity on Schoenoplectiella juncoides for CC1=CN(C(C)(C)c2cc(Cl)cc(Cl)c2)C(=O)C1(C(=O)OCc1ccccc1)c1ccccc1 (stereo not drawn) , please.
0

Observed Activity on Schoenoplectiella juncoides for COC(=O)C1(c2ccccc2)C(=O)N(C(C)(C)c2cnc3ccccc3c2)C=C1C (stereo not drawn) , please.
87.6

Observed Activity on Schoenoplectiella juncoides for COC(=O)C1(c2ccccc2)C(=O)N(C(C)(C)c2cccc(Cl)c2)C=C1C (stereo not drawn) , please.
87.6

Observed Activity on Schoenoplectiella juncoides for COC(=O)C1(c2ccccc2)C(=O)N(C(C)(C)c2cc(Cl)nc(Cl)c2)C=C1C (stereo not drawn) , please.
87.6

Observed Activity on Schoenoplectiella juncoides for COC(=O)C1(c2ccccc2F)C(=O)N(C(C)(C)c2cc(Cl)cc(Cl)c2)C=C1C (stereo not drawn) , please.
87.6

Observed Activity on Schoenoplectiella juncoides for COC(=O)C1(c2ccccc2)C(=O)N(C(C)(C)c2cc(Cl)cc(Cl)c2)C=C1CO (stereo not drawn) , please.
87.6

Observed Activity on Schoenoplectiella juncoides for COC(=O)C1(c2ccccc2)C(=O)N(C(C)(C)c2cc(F)cc(F)c2)C=C1C (stereo not drawn) , please.
87.6

Observed Activity on Schoenoplectiella juncoides for CCOC(=O)C1(c2ccccc2)C(=O)N(C(C)(C)c2cc(Cl)cc(Cl)c2)C=C1C (stereo not drawn) , please.
75.1

----------
test system: Echinochloa oryzicola; assay: Pre-emergence herbicide activity against Echinochloa oryzicola under greenhouse condition at 1 g a.i/a measured after 3 weeks; format: functional
Assignment: determine reported Activity for the given compounds.
The reply should be a number in %, with the unit left off.

Activity for COC(=O)C1(c2ccccc2)C(=O)N(C(C)(C)c2cnc3ccccc3c2)C=C1C (stereo not drawn) ?
100

Activity for COCC1=CN(C(C)(C)c2cc(Cl)cc(Cl)c2)C(=O)C1(C(=O)OC)c1ccccc1 (stereo not drawn) ?
100

Activity for CC1=C(c2ccccc2)C(=O)N(C(C)(C)c2cc(Cl)cc(Cl)c2)C1 ?
100

Activity for COC(=O)C1(c2ccccc2)C(=O)N(C(C)(C)c2ccc3ccccc3c2)C=C1C (stereo not drawn) ?
87.6

Activity for COC(=O)C1(c2ccccc2)C(=O)N(C(C)(C)c2cc(Cl)cc(Cl)c2)C=C1COC(C)=O (stereo not drawn) ?
75.1

Activity for COC(=O)C1(c2ccccc2)C(=O)N(C(C)(C)c2cc(F)cc(F)c2)C=C1C (stereo not drawn) ?
75.1

Activity for COC(=O)C1(c2ccccc2)C(=O)N(C(C)(C)c2cccc(Cl)n2)C=C1C (stereo not drawn) ?
100

Activity for COC(=O)C1(c2ccccc2)C(=O)N(C(C)(C)c2cc(Cl)cc(Cl)c2)C=C1C(F)F (stereo not drawn) ?
0

Activity for COC(=O)C1(c2ccccc2)C(=O)N(C(C)(C)c2cc(Cl)cc(Cl)c2)C=C1CO (stereo not drawn) ?
100

Activity for COC(=O)C1(c2ccccc2)C(=O)N(C(C)(C)c2cc(Cl)nc(Cl)c2)C=C1C (stereo not drawn) ?
100

Activity for COC(=O)C1(c2ccccc2)C(=O)N(C(C)(C)c2cccc(Cl)c2)C=C1C (stereo not drawn) ?
100

Activity for COC(=O)C1(c2ccccc2)C(=O)N(C(C)(C)c2cc(Cl)cc(Cl)c2)C=C1C (stereo not drawn) ?
100

Activity for COC(=O)C1(c2ccccc2)C(=O)N(C(C)(C)c2cc(Cl)cc(Cl)c2)C=C1/C=N/O (stereo not drawn) ?
0

Activity for CCOC(=O)C1(c2ccccc2)C(=O)N(C(C)(C)c2cc(Cl)cc(Cl)c2)C=C1C (stereo not drawn) ?
100

Activity for COC(=O)C1(c2ccccc2)C(=O)N(C(C)(C)c2cc(Cl)cc(Cl)c2)C=C1C#N (stereo not drawn) ?
0

Activity for COC(=O)C1(c2ccccc2F)C(=O)N(C(C)(C)c2cc(Cl)cc(Cl)c2)C=C1C (stereo not drawn) ?
100

Activity for COC(=O)C1(c2ccccc2)C(=O)N(C(C)(C)c2cc(Cl)cc(Cl)c2)C=C1C=O (stereo not drawn) ?
100

Activity for CC1=CN(C(C)(C)c2cc(Cl)cc(Cl)c2)C(=O)C1(C(=O)OCc1ccccc1)c1ccccc1 (stereo not drawn) ?
0
